# Tested on: HCC-2998 colon
# assay_explanation: NCI-60 one-dose screen, 48 h (100 = growth as untreated, 0 = no growth, -100 = all killed)
# condition_description: 10 µM unless noted
The panel holds about 83,000 compounds, 20% with a hit somewhere; the sample as a whole holds those more often.
growth overview

>  <smiles_text>
CN1CCc2c(sc3ncnc(N/N=C/c4ccc(Cl)cc4Cl)c23)C1

>  <target_under_test>
HCC-2998 colon

>  <growth / %>
24.1

$$$$
>  <smiles_text>
Cn1cc(-c2cc(N)n3nc(-c4cn(C)c5ccccc45)cc3n2)c2cc(Cl)ccc21

>  <target_under_test>
HCC-2998 colon

>  <growth / %>
-73

$$$$
>  <smiles_text>
O=c1[nH]c(=O)c2c(-c3cc4ccccc4oc3=O)ccnc2[nH]1

>  <target_under_test>
HCC-2998 colon

>  <growth / %>
98.8

$$$$
>  <smiles_text>
CC(=O)Nc1cccc(Nc2nc(NCc3ccccc3)c3ccccc3n2)c1

>  <target_under_test>
HCC-2998 colon

>  <growth / %>
-98.8

$$$$
>  <smiles_text>
Cc1cc(C)cc(NC(=O)Cn2cc(COn3nnc4ccccc43)nn2)c1

>  <target_under_test>
HCC-2998 colon

>  <growth / %>
104

$$$$
>  <smiles_text>
CC(=O)Nc1ccc(-c2nc3cc(-c4ccc(O)cc4)ccc3n2C)cc1

>  <target_under_test>
HCC-2998 colon

>  <growth / %>
58.9

$$$$
>  <smiles_text>
NS(=O)(=O)c1ccc(-n2cc(-c3cccc(NC(=O)c4cc(N5CCOCC5)cc(C(F)(F)F)c4)c3)nn2)cc1

>  <target_under_test>
HCC-2998 colon

>  <growth / %>
88.1

$$$$
>  <smiles_text>
Nc1nnc(-c2c[nH]c3ncc(Br)cc23)c(-c2c[nH]c3ccc(F)cc23)n1

>  <target_under_test>
HCC-2998 colon

>  <growth / %>
45.9

$$$$
>  <smiles_text>
CN(C)CCn1c2ccccc2c2nc3cc(C(F)(F)F)ccc3nc21

>  <target_under_test>
HCC-2998 colon

>  <growth / %>
41.6

$$$$
>  <smiles_text>
COc1ccc(/C=C2\C(=N)N=C(SCc3nc4ccccc4[nH]3)NC2=O)cc1

>  <target_under_test>
HCC-2998 colon

>  <growth / %>
116

$$$$

###

# System: SK-MEL-5 melanoma
# assay_explanation: NCI-60 one-dose screen, 48 h (100 = growth as untreated, 0 = no growth, -100 = all killed)
# condition_description: 10 µM unless noted
About 83,000 compounds went through this panel and 20% of them were active in at least one assay; those are over-represented in the sample as a whole.

>  <compound>
COc1ccc(-c2nc3cc(C)ccc3n2CC(=O)N=Nc2c(O)[nH]c3ccc(OC)cc23)cc1

>  <growth / %>
-95.9

$$$$
>  <compound>
Cc1ccc([C@H]2C(C(=O)c3ccc(Cl)cc3)C3(N[C@@H]2c2ccccc2)C(=O)Nc2ccc(Cl)cc23)cc1 (stereo partly specified)

>  <growth / %>
77.9

$$$$
>  <compound>
CCCCCCCS(=O)(=O)N1CCCC(C(=O)Nc2nc3ccc(NC(=O)c4ccc(F)c(OC)c4F)cc3s2)C1 (stereo unspecified)

>  <growth / %>
55

$$$$
>  <compound>
O=C(Nc1ccccc1)N1CCN(c2cc(-c3cn(-c4ccccc4)nc3-c3cccc(O)c3)ccn2)CC1

>  <growth / %>
40

$$$$
>  <compound>
O=C(COc1ccc(NC(=O)Nc2ccc(Cl)cc2)cc1)N/N=C/c1ccccc1

>  <growth / %>
-94

$$$$
>  <compound>
O=C(NN1C(=O)/C(=C/C=C/c2ccc([N+](=O)[O-])o2)SC1=S)c1cccc(O)c1

>  <growth / %>
-100

$$$$
>  <compound>
N#Cc1c(-c2cccnc2)cc(-c2ccc3ccccc3c2)[nH]c1=O

>  <growth / %>
78.2

$$$$
>  <compound>
O=c1c2ccccc2nc(-c2ccccc2)n1/N=C/c1ccc2ccccc2c1

>  <growth / %>
38.5

$$$$
>  <compound>
COc1ccc(NC(=O)Cn2c(O)c(N=Nc3ccc(S(N)(=O)=O)cc3)c3ccccc32)cc1

>  <growth / %>
62.3

$$$$
>  <compound>
COc1ccc2c(c1)c(/C=N/Nc1ccc3ccccc3n1)cn2C

>  <growth / %>
23

$$$$
>  <compound>
COc1ccc(/C=C/c2nc3ccccc3nc2Nc2cccc(C)c2)cc1

>  <growth / %>
95.7

$$$$
>  <compound>
C=C1CC[C@@H]2[C@]3(C)COC(c4cn[nH]c4-c4ccc(OC)cc4)O[C@@H]3CC[C@@]2(C)[C@@H]1C/C=C1/C(=O)OCC1O (stereo partly specified)

>  <growth / %>
-94.3

$$$$
>  <compound>
COc1cc2c(c(OC)c1OC)C(=O)CC(c1cccc(NC(=O)c3cccc(NC(=O)[C@H](C)NC(=O)OC(C)(C)C)c3)c1)O2 (stereo partly specified)

>  <growth / %>
25.9

$$$$
>  <compound>
COc1ccc(/C=C2\C(=N)N=C(SCc3nc4ccccc4[nH]3)NC2=O)cc1

>  <growth / %>
101

$$$$
>  <compound>
COc1ccc2oc(=O)c(C3(C)NC(=O)c4c(/C=C/C(=O)OC(C)(C)C)cccc4N3)cc2c1 (stereo unspecified)

>  <growth / %>
-59.8

$$$$
>  <compound>
COc1ccc(C(=O)/C=C/c2ccc(OCc3ccc(F)cc3)c(OC)c2)cc1OC

>  <growth / %>
17.8

$$$$
>  <compound>
CNS(=O)(=O)c1ccc(Nc2ccc(C(F)(F)F)cc2)c(-c2cn(C)cn2)c1

>  <growth / %>
60.1

$$$$
>  <compound>
CC1=C(C(=O)OC(C)C)C(c2cccc(O)c2)NC(=S)N1 (stereo unspecified)

>  <growth / %>
98.8

$$$$
>  <compound>
CC(=O)OC[C@@]1(C)C2CC[C@]3(C)C(CC=C4C5CC(C)(C)CC[C@]5(C(=O)Nc5ccc(C)cc5)CC[C@]43C)[C@@]2(C)C[C@@H](OC(C)=O)[C@@H]1OC(C)=O (stereo partly specified)

>  <growth / %>
7.75

$$$$
>  <compound>
CCOC(=O)/C=C/c1cccc2c1C(=O)NC(C)(c1cc3cc(Br)ccc3oc1=O)N2 (stereo unspecified)

>  <growth / %>
48.2

$$$$
>  <compound>
COc1ccc(C2=NN(C(C)=O)C(c3ccc(OCc4ccc(Cl)cc4)c(OC)c3)C2)cc1OC (stereo unspecified)

>  <growth / %>
-9.52

$$$$
>  <compound>
COc1ccc(-c2ccc(SCC(=O)Nc3ccc(S(N)(=O)=O)cc3Br)nn2)cc1

>  <growth / %>
94.3

$$$$
>  <compound>
CCCCc1c(Nn2cnnn2)no[n+]1[O-]

>  <growth / %>
80.6

$$$$
>  <compound>
CC1=C(C(=O)c2ccccc2)C(c2cccc3ccccc23)n2c(nc3ccccc32)N1 (stereo unspecified)

>  <growth / %>
62.1

$$$$
>  <compound>
N/C(=N\c1nc2ccccc2s1)NC(=O)Nc1ccccc1Br

>  <growth / %>
-55.3

$$$$
>  <compound>
Nc1nnc(-c2c[nH]c3ccc(Br)cc23)c(-c2c[nH]c3ncc(Br)cc23)n1

>  <growth / %>
44.2

$$$$
>  <compound>
O=C(COc1ccc(NC(=O)Nc2ccccc2)cc1)N=Nc1c(O)[nH]c2ccc([N+](=O)[O-])cc12

>  <growth / %>
28.4

$$$$
>  <compound>
Cn1cc(-c2nnc(N)nc2-c2c[nH]c3ccccc23)c2cccnc21

>  <growth / %>
24.4

$$$$
>  <compound>
COCOc1cc2c(=O)c(C)c(C(=O)N[C@@H](Cc3ccccc3)C(O)C(=O)NCc3ccccc3)oc2cc1OC (stereo partly specified)

>  <growth / %>
10.6

$$$$
>  <compound>
CC(=O)Nc1cccc(Nc2nc(N[C@H]3CCCc4ccccc43)c3ccccc3n2)c1

>  <growth / %>
105

$$$$
>  <compound>
O=C1c2c(c3c4cc(F)ccc4oc3c3[nH]c4ccc(Br)cc4c23)C(=O)N1O

>  <growth / %>
6.06

$$$$
>  <compound>
Cc1ccccc1[C@H]1C(C(=O)c2ccc(Cl)cc2)C2(N[C@@H]1c1ccccc1)C(=O)Nc1ccc(Br)cc12 (stereo partly specified)

>  <growth / %>
35.3

$$$$
>  <compound>
O=C(N/N=C/c1ccc(-c2ccc(O)cc2)s1)c1[nH]c2ccc(Br)cc2c1-c1ccccc1

>  <growth / %>
5.31

$$$$
>  <compound>
Cc1cc(=O)oc2cc(OCCCCOc3ccc(/C=C/C(=O)Nc4ccccc4N)cc3)ccc12

>  <growth / %>
-66.1

$$$$
>  <compound>
Cc1sc2c(c1C)C(c1ccc(Cl)cc1)=N[C@@H](CC(=O)NCCCCCNC(=O)COc1ccc(C3CCC(=O)NC3=O)cc1)c1nnc(C)n1-2 (stereo partly specified)

>  <growth / %>
-13.4

$$$$
>  <compound>
CC(=O)Nc1cccc(Nc2nc(NCc3ccccc3)c3ccccc3n2)c1

>  <growth / %>
-98.2

$$$$
